Origin of values: patent US4788188A

Biological target: benzodiazepine receptors
Assay: Affinity for benzodiazepine receptors: inhibition of specific binding of [3H]flunitrazepam (WASTEK et al., modified)
Settings: 50% inhibition of specific binding of [3H]flunitrazepam, rat brain membranes
pIC50: −log10 of the molar value. Structures can show the parent of a compound that is named as a salt.
// false (0) strictly below 7 in pIC50; true (1) otherwise

Field: example entries. Status: answers known.
CCCN(CCC)C(=O)CN(C)c1c(C(=O)OCc2ccccc2)cnc2ccc(Cl)cc12 [Derivative 52]; false (0)
CCN(CC)C(=O)CNc1c(C(=O)O)cnc2ccc(Cl)cc12 [Derivative 43]; true (1)
CCOC(=O)c1cnc2ccc(C)cc2c1NCC(=O)N(CC)CC [Derivative 2, hydrochloride]; true (1)
CCOC(=O)c1cnc2ccc(Cl)cc2c1NCC(=O)N1CCCCCC1 [Derivative 27]; true (1)
CCOC(=O)c1cnc2ccc(Cl)cc2c1NCC(N)=O [Derivative 30]; false (0)
CCCN(CCC)C(=O)CNc1c(C(=O)O)cnc2ccc(Cl)cc12 [Derivative 46]; true (1)

Reported pIC50 reaches at least 7 for CCOC(=O)c1cnc2ccc(OCC)cc2c1NCC(=O)N1CCCCC1 [Derivative 33] ?
true (1)
